assay: Probe fluorescence ratio response to arachidonic acid relative to ADIFAB2; format: binding; settings: arachidonic acid; response relative to ADIFAB2
Give DR/DR AA for every item shown.
One number for each entry.

Dear colleague, could you send me DR/DR AA for each of the items below? Thanks.
1. 17G, 72A (protein, listed as Rattus norvegicus, PEPTIDE (1)...(131) wild-type rat intestinal fatty acid binding protein) AFDGTWKVDRNENYEKGMEKMGINVVKRKLGAHDNLKLTITQEGNKFTVKESSNFRNIDVVFELGVDFAYSAADGTELTGTWTMEGNKLVGKFKRVDNGKELIAVREISGNELIQTYTYEGVEAKRIFKKE
2. 31F2, 72A (protein, listed as Rattus norvegicus, PEPTIDE (1)...(131) wild-type rat intestinal fatty acid binding protein) AFDGTWKVDRNENYEKFMEKMGINVVKRKLFAHDNLKLTITQEGNKFTVKESSNFRNIDVVFELGVDFAYSAADGTELTGTWTMEGNKLVGKFKRVDNGKELIAVREISGNELIQTYTYEGVEAKRIFKKE
3. 106L3, 72A (protein, listed as Rattus norvegicus, PEPTIDE (1)...(131) wild-type rat intestinal fatty acid binding protein) AFDGTWKVDRNENYEKFMEKMGINVVKRKLGAHDNLKLTITQEGNKFTVKESSNFRNIDVVFELGVDFAYSAADGTELTGTWTMEGNKLVGKFKRVDNGKELIAVLEISGNELIQTYTYEGVEAKRIFKKE

Marked response:
[0.48, 1.41, 0.84]
